Property: EC50; scope: individual molecules
# Test system: HIV-1/LAI
# ASSAY METHOD TEXT: Antiviral activity in acutely infected MT4 cells, wild-type reference strain
# Format: cell-based
# CONDITIONS USED: Human immunodeficiency virus 1; wild-type HIV-1/LAI, no selection; MT4 cells; read-out: median(EC50 (μM))

Observe how each entry below is paired with its result.
# STRUCTURE SMILES, TEST TARGET, EC50
rows = [
    ("Cc1cc(C#N)cc(C)c1Oc1nc(Nc2ccc(C#N)cc2)nc(N)c1Br", "HIV-1/LAI", "0.0014 µM"),
    ("O=C1Nc2ccc(Cl)cc2[C@@](C#CC2CC2)(C(F)(F)F)O1", "HIV-1/LAI", "0.001 µM"),
]

Next molecule, please.
So, Cc1ccnc2c1NC(=O)c1cccnc1N2C1CC1 ? Its EC50 was 0.0763 µM
